- System: PC49
- protocol-description: qHTS profiling for inhibitors of Plasmodium falciparum proliferation (AID 504749); also: nearly all actives have a fitted effect of over 60% in size
- settings: P. falciparum in erythrocytes, SYBR Green DNA, 72 h; series mostly up to 28.7 µM
Inconclusive results are not listed. Calls of active or inactive are those of the source. Calls follow the shape of the dose curve; as a rule, active = well fitted inhibition curve with a large enough effect; inconclusive = small, poorly fitted or top-dose-only effect; inactive = flat fitted curve, though single readings scatter.
Form entry, call: pick from y for active, n for inactive

Reference set (3 entries):
NCCc1ccn[nH]1 = n
C[C@H]1[C@H](NC(=O)/C(=N/OC(C)(C)C(=O)O)c2csc(N)n2)C(=O)N1S(=O)(=O)O (stereo in doubt) = n
C[C@]12CCC(=O)C=C1CC[C@H]1[C@@H]3CC[C@](O)(C(=O)CO)[C@@]3(C)C[C@H](O)[C@@]12F = n

## Task Hi, do you know how COc1ccc(/C=C/C(=O)c2ccc(OC)cc2OC)cc1 came out in this test?
## Result y

## Task Hi, do you know how C[C@]12CC[C@@H]3c4ccc(O)cc4CC[C@H]3[C@@H]1CC[C@@H]2O came out in this test?
## Result n

## Task Hi, do you know how CCCCCC=CCC=CCCCCCCCC(=O)OCC came out in this test?
## Result n
